biological target: BSA (UniProt P02769); assay: ELISA on coated BSA control, anti-myc detection; 2ng antibody added
Sequence (P02769 25-607 limits assumed): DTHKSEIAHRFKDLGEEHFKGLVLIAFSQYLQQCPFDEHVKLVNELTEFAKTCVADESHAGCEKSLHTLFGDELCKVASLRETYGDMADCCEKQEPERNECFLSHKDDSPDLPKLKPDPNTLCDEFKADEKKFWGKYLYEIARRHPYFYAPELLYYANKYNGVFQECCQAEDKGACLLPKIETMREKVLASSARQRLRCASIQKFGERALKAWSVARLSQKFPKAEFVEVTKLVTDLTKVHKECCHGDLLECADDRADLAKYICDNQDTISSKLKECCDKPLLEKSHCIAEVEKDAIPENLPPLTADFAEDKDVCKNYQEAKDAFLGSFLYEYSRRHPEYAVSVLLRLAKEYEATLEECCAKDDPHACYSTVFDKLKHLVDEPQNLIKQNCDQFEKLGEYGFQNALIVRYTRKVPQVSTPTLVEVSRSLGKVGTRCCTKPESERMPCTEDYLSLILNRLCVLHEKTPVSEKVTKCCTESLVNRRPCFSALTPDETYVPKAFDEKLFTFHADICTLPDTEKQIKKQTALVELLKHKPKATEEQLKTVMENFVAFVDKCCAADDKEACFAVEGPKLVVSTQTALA
Form field: OD450 nm (one value per entry).
OBSERVED_PROPERTY: OD450 nm (OD450)

anti-CD79B single-domain antibody JYB14 (VHH, Alpaca VHH from a phage library; ELISA detected with an anti-myc antibody; a myc tag is not described; not shown: His-tag protein at the C-terminal end) VHH: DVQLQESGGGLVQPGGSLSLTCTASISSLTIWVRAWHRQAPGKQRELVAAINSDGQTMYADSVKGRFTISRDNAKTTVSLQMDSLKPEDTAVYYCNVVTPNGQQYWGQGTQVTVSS    0.0474
anti-CD79B single-domain antibody JYB4 (VHH, Alpaca VHH from a phage library; not shown: His-tag protein at the C-terminal end) VHH: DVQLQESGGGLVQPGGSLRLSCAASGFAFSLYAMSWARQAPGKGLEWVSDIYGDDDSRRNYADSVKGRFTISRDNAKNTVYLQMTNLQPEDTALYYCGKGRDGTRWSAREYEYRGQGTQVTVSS    0.0479
anti-CD79B single-domain antibody JYB8 (VHH, not shown: small tags and cut ends) VHH: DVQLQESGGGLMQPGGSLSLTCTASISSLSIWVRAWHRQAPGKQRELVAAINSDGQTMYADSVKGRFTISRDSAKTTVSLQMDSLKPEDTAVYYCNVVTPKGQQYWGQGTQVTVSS    0.0474
